Target: His-tagged N-terminal ATP binding domain (amino acid residues 9-236) of HSP90α (Homo sapiens)
Assay: HSP90 inhibitor binding potency: TRF competition binding assay
Conditions: Table 3; competition with biotinylated radicicol
Description: HSP90 Inhibitor Binding Potency: TRF Binding Assay In this example, the binding potency of HSP90 inhibitors as measured by a TRF binding assay is described. TRF competition binding assays were performed to determine the binding potency (IC50 values) of HSP90 inhibitors. […] After gentle shaking for 10 minutes, the plates were read in VICTOR for europium counts.

{"Smiles Text": "COc1cncc(-c2cc(F)ccc2[C@H]2Cc3nc(N)nc(C)c3C(=O)N2Cc2ccc(F)cc2)n1", "IC50": "< 10 µM"}
{"Smiles Text": "Cc1nc(N)nc2c1C(=O)N(CCC(C)C)[C@@H](c1ccc(F)cc1Br)C2", "IC50": "> 10 µM"}
{"Smiles Text": "COc1cncc(-c2cc(F)ccc2[C@H]2Cc3nc(N)nc(C)c3C(=O)N2CCC(C)C)n1", "IC50": "< 10 µM"}
{"Smiles Text": "Cc1nc(N)nc2c1C(=O)N(Cc1ccccc1)[C@@H](c1ccc(F)cc1-c1cccnc1F)C2", "IC50": "< 10 µM"}
{"Smiles Text": "COc1nc(-c2cc(F)ccc2[C@H]2Cc3nc(N)nc(C)c3C(=O)N2Cc2ccccc2F)cnc1N", "IC50": "< 10 µM"}
{"Smiles Text": "COc1nc(-c2cc(F)ccc2[C@@H]2Cc3nc(N)nc(C)c3C(=O)N2)cnc1N", "IC50": "> 10 µM"}
{"Smiles Text": "Cc1nc(N)nc2c1C(=O)N(CCC(C)C)[C@@H](c1ccc(F)cc1-c1cccnc1F)C2", "IC50": "< 10 µM"}
{"Smiles Text": "COc1cccc(-c2cc(F)ccc2[C@H]2Cc3nc(N)nc(C)c3C(=O)N2Cc2ccccc2)n1", "IC50": "< 10 µM"}
{"Smiles Text": "COc1cncc(-c2cc(F)ccc2[C@H]2Cc3nc(N)nc(C)c3C(=O)N2Cc2cccc(C(F)(F)F)c2)n1", "IC50": "< 10 µM"}
{"Smiles Text": "COc1cccc(-c2cc(F)ccc2[C@H]2Cc3nc(N)nc(C)c3C(=O)N2Cc2ccccc2F)n1", "IC50": "< 10 µM"}
{"Smiles Text": "COc1nc(-c2cc(F)ccc2[C@H]2Cc3nc(N)nc(C)c3C(=O)N2Cc2ccccc2Cl)cnc1N", "IC50": "< 10 µM"}
{"Smiles Text": "Cc1nc(N)nc2c1C(=O)N(CC(C)C)[C@@H](c1ccc(F)cc1Br)C2", "IC50": "> 10 µM"}
{"Smiles Text": "COc1nc(-c2cc(F)ccc2[C@H]2Cc3nc(N)nc(C)c3C(=O)N2)cs1", "IC50": "< 10 µM"}
{"Smiles Text": "COc1cccc(-c2cc(F)ccc2[C@H]2Cc3nc(N)nc(C)c3C(=O)N2Cc2ccccc2Cl)n1", "IC50": "< 10 µM"}
{"Smiles Text": "COc1ccncc1-c1cc(F)ccc1[C@H]1Cc2nc(N)nc(C)c2C(=O)N1CCC(C)C", "IC50": "< 10 µM"}

* * *

Target: His-tagged N-terminal ATP binding domain (amino acid residues 9-236) of HSP90α (Homo sapiens, UniProt P07900)
Experiment: HSP90 inhibitor binding potency: TRF competition binding assay
Settings: Table 3; competition with biotinylated radicicol

{"Compound": "COc1ccc(CN2C(=O)c3c(C)nc(N)nc3C[C@@H]2c2ccc(F)cc2-c2cccc(OC)n2)c(OC)c1 [Compound 119]", "IC50": "< 10 µM"}
{"Compound": "Cc1ccc(-c2cc(F)ccc2[C@H]2Cc3nc(N)nc(C)c3C(=O)N2Cc2ccccc2)c(F)c1 [Compound 142]", "IC50": "> 10 µM"}
{"Compound": "Cc1nc(N)nc2c1C(=O)N(Cc1ccccc1)[C@@H](c1ccc(F)cc1-c1cccc(F)c1F)C2 [Compound 138]", "IC50": "< 10 µM"}
{"Compound": "COc1ccc(CN2C(=O)c3c(C)nc(N)nc3C[C@@H]2c2ccc(F)cc2Br)c(OC)c1 [Compound 114]", "IC50": "> 10 µM"}
{"Compound": "COc1ncc(-c2cc(F)ccc2[C@H]2Cc3nc(N)nc(C)c3C(=O)N2CC(C)C)nc1OC [Compound 156]", "IC50": "< 10 µM"}
{"Compound": "CCN1C(=O)c2c(C)nc(N)nc2C[C@@H]1c1ccc(F)cc1-c1cncc(OC)n1 [Compound 108]", "IC50": "< 10 µM"}
{"Compound": "COc1ncccc1-c1cc(F)ccc1[C@H]1Cc2nc(N)nc(C)c2C(=O)N1Cc1ccccc1 [Compound 135]", "IC50": "< 10 µM"}
